Data origin: patent US20150105316A1

Study System: T1, human angiotensin 2 type 1 receptor (human, UniProt P30556 1-359)
T1 sequence (looked up): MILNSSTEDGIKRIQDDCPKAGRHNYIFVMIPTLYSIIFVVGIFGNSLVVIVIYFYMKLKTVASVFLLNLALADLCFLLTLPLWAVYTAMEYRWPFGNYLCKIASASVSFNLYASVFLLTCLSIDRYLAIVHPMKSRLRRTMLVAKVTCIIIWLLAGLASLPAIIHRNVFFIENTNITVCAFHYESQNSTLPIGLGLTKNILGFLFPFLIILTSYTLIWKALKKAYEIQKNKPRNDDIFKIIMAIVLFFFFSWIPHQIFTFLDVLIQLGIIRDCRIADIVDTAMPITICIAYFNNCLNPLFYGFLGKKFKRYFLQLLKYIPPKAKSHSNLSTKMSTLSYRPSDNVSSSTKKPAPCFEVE
Assay: cell-based or functional assay
Where no end group is shown, it is not given here. [ ]: non-standard residue; d: D form. Ac6c = NC1(C(=O)O)CCCCC1; Ac5c = NC1(C(=O)O)CCCC1; Aib = CC(C)(N)C(=O)O; Sar = CNCC(=O)O
Reported IP1 G-protein assay Span values are given for each entry in this list.

[Sar]RVY[Ac5c]HPF [SEQ ID NO: 24 (Sar-Arg-Val-Tyr-cyPen-His-Pro-Phe)]; > 103
[Sar]RVY[Ac6c]HPQ [SEQ ID NO: 38 (Sar-Arg-Val-Tyr-cyHex-His-Pro-Gln)]; < 103
[Sar]RVY[Ac5c]HPL [SEQ ID NO: 19 (Sar-Arg-Val-Tyr-cyPen-His-Pro-Leu)]; < 103

For [Sar]RVY[Aib]HPV [SEQ ID NO: 33 (Sar-Arg-Val-Tyr-AA01-His-Pro-Val)] the binder record lists IP1 G-protein assay Span as < 103

Query [Sar]RVY[Ac6c]HPF [SEQ ID NO: 17 (Sar-Arg-Val-Tyr-cyHex-His-Pro-Phe)] yields IP1 G-protein assay Span of < 103

Kindly note the recorded IP1 G-protein assay Span for [Sar]RVYPHPL [SEQ ID NO: 5 (Sar-Arg-Val-Tyr-Pro-His-Pro-Leu)] , which is < 103

Reported IP1 G-protein assay Span ( [Sar]RVY[Ac6c]HPP [SEQ ID NO: 39 (Sar-Arg-Val-Tyr-cyHex-His-Pro-Pro)] ) = < 103

IP1 G-protein assay Span measured on [Sar]RVY[Ac5c]HPV [SEQ ID NO: 20 (Sar-Arg-Val-Tyr-cyPen-His-Pro-Val)] = < 103
